# ASSAY PROCEDURE: Pharmacokinetics after oral administration to control, G-ARF and C-ARF rats
# Format: in vivo, Sprague–Dawley rats
# SETUP CONDITIONS: Sprague-Dawley, rat, plasma, po, 20 mg/kg, C-ARF rats
PROPERTY NAME: AUC
Provide a numeric answer, followed by its unit.

Given the entry `C[C@@H]1CCN(C(=O)CC#N)C[C@@H]1N(C)c1ncnc2[nH]ccc12` , report its measured AUC.
12500 ng·h/mL

###

# ASSAY PROCEDURE: Pharmacokinetics after oral administration to control, G-ARF and C-ARF rats
# Type: in vivo, Sprague–Dawley rats
# SETUP CONDITIONS: Sprague-Dawley, rat, plasma, po, 20 mg/kg, C-ARF rats, read-out: Cmax
PROPERTY NAME: Cmax (ng/mL)
Expressed in ng/mL, but write only the number.

Given the entry `C[C@@H]1CCN(C(=O)CC#N)C[C@@H]1N(C)c1ncnc2[nH]ccc12` , report its measured Cmax.
4200

// provenance: paper PMC7464785
